experiment: Maximum Tolerated Dose after acute administration; details: mouse, in vivo, po, mice
OBSERVED PROPERTY: MTD

The compound C=CCc1ccc(OC(CCNC)c2ccccc2)c(-c2ccc(O)c(CC=C)c2)c1.Cl (stereo not shown) showed MTD equal to 30 mg/kg

====

assay: log D octanol/water distribution coefficient; format: physicochemical
Where a name gives a salt, the structure may show the parent alone.
OBSERVED PROPERTY: logDoctanol/water
Give a plain numeric answer without units written out.

| COMPOUND | OBSERVED PROPERTY | REPORTED RESULT |
| --- | --- | --- |
| C=CCc1ccc(O)c(-c2ccc(OC(CCNC)c3ccccc3)c(CC=C)c2)c1 (stereo not shown) [Example 5, hydrochloride] | logDoctanol/water | 0.85 |
| C=CCc1ccc(O)c(-c2ccc(O)c(CC=C)c2)c1 [Honokiol, reference compound] | logDoctanol/water | 5.25 |
| C=CCc1ccc(O)c(-c2cc(CC=C)ccc2O)c1 [Magnolol, reference compound] | logDoctanol/water | 5.25 |

Reported logDoctanol/water for C=CCc1ccc(O)c(-c2cc(CC=C)ccc2OC(CCNC)c2ccccc2)c1.Cl (stereo not shown) [Example 1] was 1.31
